Assay notes: Toxicity liver stage against HepG2, at 10uM
Assay type: cell-based
Design: test concentration 10 uM, cell line HepG2-A16-CD81EGFP
Run parameters: human, HepG2-A16-CD81EGFP cells; read-out: INHIBITION
Would you kindly list cytotoxicity at 10 µM for each of these compounds?
Answer shape: numeric part, then the unit.

Observe how each entry below is paired with its result.
Prompt line: For the compound O=C(O)C1(Oc2ccccc2)CCN(c2ccncc2)CC1 , what cytotoxicity at 10 µM is on record?
Response line: -3.99%

Prompt line: For the compound CCc1ncc(CN2CCC(CCc3ccccc3)CC2)cn1 , what cytotoxicity at 10 µM is on record?
Response line: -175%

Prompt line: For the compound Cc1cnn(C2CCCN(C(=O)Cc3ccc4c(c3)CCO4)C2)c1 (centres undefined) , what cytotoxicity at 10 µM is on record?
Response line: -5.83%

Prompt line: For the compound COc1cccc(Cn2c(C)c(C)oc2=O)c1OC , what cytotoxicity at 10 µM is on record?
Response line: -2.34%

Provide reported cytotoxicity at 10 µM for each item, in the same order as listed.
1. O=C(Nc1ccccn1)c1csc(NC2CCCC2)n1
2. Cc1cc(C)n(CC2CCCN2C(=O)CCCc2ccccn2)n1 (centres undefined)
3. NC(=O)c1ccc(N2CCCCC2)c(NC(=O)c2cncc(Br)c2)c1
4. CC(C(=O)NCC1(c2cccc(Br)c2)CCC1)S(C)(=O)=O (centres undefined)
5. COc1ccccc1OCc1cc(C(=O)N2CC=CC2C(C)C)n[nH]1 (centres undefined)
6. c1ccc(CO[C@@H]2CN(Cc3nccs3)[C@@H]3COC[C@@H]32)nc1
7. CC1c2ncc(CNC(=O)C3CC3)n2CCN1Cc1ccccn1 (centres undefined)

Response line:
1. 9.09%
2. -0.395%
3. -9.41%
4. 6.88%
5. -2.72%
6. -104%
7. 8.18%

----------
Assay notes: Toxicity liver stage against HepG2, at 10uM
Type: cell-based
Set-up: test concentration 10 uM, cell line HepG2-A16-CD81EGFP
Run parameters: human, HepG2-A16-CD81EGFP cells; read-out: INHIBITION
Would you kindly list cytotoxicity at 10 µM for each of these compounds?
Numbers only, in %.

Observe how each entry below is paired with its result.
Prompt line: For the compound CCc1nn(C)c2[nH]nc(NC(=O)c3ccccc3COC)c12 , what cytotoxicity at 10 µM is on record?
Response line: 6.16

Prompt line: For the compound CCN(CC)C(=O)CCn1ncc2c(Cl)cccc21 , what cytotoxicity at 10 µM is on record?
Response line: 12.4

Prompt line: For the compound CN1CCN(Cc2cn3c(n2)CN(C(=O)c2ccccn2)CC3)CC1 , what cytotoxicity at 10 µM is on record?
Response line: -5.7

Provide reported cytotoxicity at 10 µM for each item, in the same order as listed.
1. COCC1CN(Cc2ccncc2)Cc2nn(C)cc21 (centres undefined)
2. Cc1cnc(C(=O)N2CCCCC2c2[nH]ncc2S(C)(=O)=O)cn1 (centres undefined)
3. CC(C)N1CCCC1c1nc(N(C)C)ncc1I (centres undefined)
4. Cc1nccn1[C@@H]1CC[C@@H](N(C)S(=O)(=O)c2cccc(F)c2)[C@H]1O
5. CCc1noc(CN2CCN(c3nccs3)CC2)n1
6. O=C(CC1CC1)NC[C@]12COC[C@H]1CN(c1ncc(F)cn1)C2
7. CC(C)c1nn(C)c(Cl)c1CNCc1ccc2c(c1)OCO2

Response line:
1. -74.1
2. 2.12
3. -0.358
4. -2.4
5. -1.46
6. -141
7. -1.77

Provide reported cytotoxicity at 10 µM for each item, in the same order as listed.
1. CN(C)C(=O)COc1ccccc1CN1CCOC2(CCCC2)C1
2. Cc1cc(C(=O)N2CCc3c(ncnc3N3CCOCC3)C2)[nH]n1
3. CNS(=O)(=O)c1ccc(CNC(=O)C2CN(C)CCO2)cc1 (centres undefined)
4. CCC1CN(CCCO)c2ccccc2O1 (centres undefined)
5. Cc1cc(NC(=O)CN2CCCC(Cn3cncn3)C2)no1 (centres undefined)
6. O[C@@H]1C[C@@H](c2nc(-c3ccccc3)no2)N(C2CCOCC2)C1
7. CC(C)c1cc(C(=O)NCC(O)C2CCOCC2)nn1C(C)(C)C (centres undefined)
8. N#CCCN(CC1CCOC1)S(=O)(=O)c1c(F)cccc1Cl (centres undefined)

Response line:
1: -4.8; 2: -5.92; 3: -14.1; 4: -7.24; 5: -0.749; 6: -1.83; 7: -9.55; 8: -2.58

Provide reported cytotoxicity at 10 µM for each item, in the same order as listed.
1. O=C(NCC1CCCO1)c1coc(Cn2cnc3ccccc32)n1 (centres undefined)
2. N#Cc1ncn(CCS(=O)(=O)c2ccccc2)n1
3. COCC1CN(Cc2ccoc2)Cc2cn(CC3CCOCC3)nc21 (centres undefined)

Response line:
1: -3.67; 2: 1.18; 3: 11.6

Reference for the values: ChEMBL document CHEMBL4513216
